Items are presented alongside their recorded growth inhibition.
Assay: NCI Yeast Anticancer Drug Screen. Data for the mec2-1 strain (AID 157)
Conditions: S. cerevisiae mec2-1 strain, at 50.0 µM, hits give high values
The panel holds about 79,000 compounds, 15% with a hit somewhere; the sample as a whole holds those more often.
quantity_kind: growth inhibition (%)

compound	quantity_kind	observed
CCCC(C)NC(=O)c1ccc(Cl)c(Cl)c1 (centres undefined)	growth inhibition	4.9
Cc1ccc2c(N(C)C)cc(N(C)C)nc2c1C	growth inhibition	4.4
Cn1c(-c2ccc(Br)cc2)cc2[nH]c(=S)nc(N)c2c1=O	growth inhibition	-23.9
CCc1c(C)c2n(c1C)C(=O)C=C2N(CC)CC	growth inhibition	-18.1
CCCCCCO/N=C\c1c2c(O)c3c(O)c(C)c4c(c3c1O)C(=O)C(C)(O/C=C\C(OC)C(C)C(OC(C)=O)C(C)C(O)C(C)C(O)C(C)/C=C\C=C(\C)C(=O)N2)O4 (centres undefined)	growth inhibition	63.4
N#CC1=C(c2ccccc2)C(=C2Nc3ccccc3N2)C2S/C(=C\c3ccccc3)C(=O)N2C1=N (centres undefined)	growth inhibition	-12.3
Nc1ccccc1S(=O)O	growth inhibition	8.55
C/C(=C\c1ccccc1)C(O)S(=O)(=O)O (centres undefined)	growth inhibition	-0.35
CCOP(=O)(Cc1c(C)cc(Br)c2ccccc12)OCC	growth inhibition	-13.8
CN1CCN(C(=O)Nc2ccc(N=Nc3ccccc3)cc2)CC1	growth inhibition	-17.2
Fc1c(F)c(F)c(CCc2c(F)c(F)c(F)c(F)c2F)c(F)c1F	growth inhibition	-8.2
NC(=O)COc1c(Br)cc(Br)cc1Br	growth inhibition	6.65
O=C1CC[C@@H](NC(=O)Cc2ccccc2)C(=O)N1	growth inhibition	-19.3
CC(=O)N1CCc2ccccc2C1C1NCCc2ccccc21 (centres undefined)	growth inhibition	8.95
O=C1NC(=S)N/C1=C\c1cccs1	growth inhibition	-7.25
CCc1nnc(-c2nsc3ccccc23)s1	growth inhibition	-22.9
CCC(C)(C)c1ccccc1	growth inhibition	6
O=C1N(O)C2(C=CCCC2)/C(=N/O)C12CCCCC2 (centres undefined)	growth inhibition	-2.3
CCCC1(c2ccccc2)SCC(=O)NC1=O (centres undefined)	growth inhibition	-0.2
C=C(Cl)C(Br)(CCl)CCC(Cl)C(C)C (centres undefined) (tested in a mixture with another compound)	growth inhibition	86.3
O=S1(=O)CCCCc2ccccc21	growth inhibition	-0.75
Cc1nc(/N=C(\N)Nc2ccc(Cl)c(Cl)c2)[nH]c(=O)c1Cc1ccccc1	growth inhibition	1.65
NC(=S)NNC(=O)c1ccc([N+](=O)[O-])cc1	growth inhibition	18.9
N#CC(C#N)=C1c2ccccc2Sc2ccccc21	growth inhibition	-0.35
O=C1c2cc3ccccc3cc2NC(O)c2cccn21 (centres undefined)	growth inhibition	4.6
Cc1cccc(-n2c(-c3ccccc3)cs/c2=N\N=C2/CSC(=O)N2Cc2ccccc2)c1	growth inhibition	-21.9
O=C(CC1=NC2NN(c3ccccc3)C(=O)C2=C1CC(=O)C(c1ccccc1)c1ccccc1)C(c1ccccc1)c1ccccc1 (centres undefined)	growth inhibition	17.9
CCOC(=O)N1c2ccccc2SC1C#N (centres undefined)	growth inhibition	40.1
Cc1cc(C)c(SSc2c(C)cc(C)cc2C)c(C)c1	growth inhibition	-8.65
O=C(Nc1ncccn1)c1ccc(Cl)cc1Cl	growth inhibition	4.8
CCOC(=O)C1(O)c2ccccc2NC(=S)N1CC(Br)CBr (centres undefined)	growth inhibition	-60.3
CCC(C)(C)C(O)c1ccc2c(c1)OCO2 (centres undefined)	growth inhibition	-13.2
Nc1cccc2sccc12	growth inhibition	5.15
CCCCOc1ccc(/C=C/C(=O)OCC(CC)CCCC)cc1 (centres undefined)	growth inhibition	-6.2
COc1cc2nc3n(c(=O)c2cc1OC)CCCCC3	growth inhibition	14.6
Cc1nc(-c2ccccc2)ncc1C(O)CN1CCOCC1 (centres undefined)	growth inhibition	11.2
COc1ccc(Nc2ccnc(N)n2)cc1	growth inhibition	-27.4
Cc1ccc(S(=O)(=O)NN=C2CCCCCC2)cc1	growth inhibition	7.55
COC1=C(NCC(C)C)C(=O)C(OC)=C(NCC(C)C)C1=O	growth inhibition	8.75
C/C=C(\c1ccccc1)N1CCOCC1	growth inhibition	-9.15
c1ccc(CN2CCC(N3CCCC3)CC2)cc1	growth inhibition	-26.1
CC[n+]1cc([N+](=O)[O-])ccc1Cl	growth inhibition	14.5
COc1ccc(C=Nc2c(O)ccc3c2CCCC3)cc1OC	growth inhibition	4.7
CC1(C)CC(=NNC(N)=S)CC(C)(C)N1	growth inhibition	-7.2
Cc1ccc(NC(=O)C(=O)Cc2cccc[n+]2[O-])cc1C	growth inhibition	13.1
COc1ccc([Se][Se]c2ccc(OC)cc2NC(C)=O)c(NC(C)=O)c1	growth inhibition	-6.8
Cc1cccc(C(O)(c2cccc(C)c2)C2(O)CCCCC2)c1	growth inhibition	-0.45
CN(C)C(=O)c1cc2ccccc2[nH]1	growth inhibition	16.4
C=C(Nc1ccc([N+](=O)[O-])cc1[N+](=O)[O-])c1c/c(=N\NC(N)=S)c2ccccc2o1	growth inhibition	-16
